- SUBJECT_OF_TEST: K-Ras G13C (Homo sapiens (Human), UniProt P01116+P62937, G13C)
- Sequence (P01116-2 other isoform, or with tags, fused parts or gaps G13C): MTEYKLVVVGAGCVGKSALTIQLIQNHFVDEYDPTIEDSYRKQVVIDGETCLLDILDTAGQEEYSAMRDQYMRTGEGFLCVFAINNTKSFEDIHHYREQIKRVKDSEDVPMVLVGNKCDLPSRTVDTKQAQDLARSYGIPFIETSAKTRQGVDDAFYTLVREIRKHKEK
- Sequence (P62937 whole entry): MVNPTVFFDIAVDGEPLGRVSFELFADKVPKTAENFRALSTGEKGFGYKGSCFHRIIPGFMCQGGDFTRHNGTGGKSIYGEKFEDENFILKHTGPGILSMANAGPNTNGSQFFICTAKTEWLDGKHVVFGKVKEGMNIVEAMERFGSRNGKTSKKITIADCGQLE
- ASSAY_REMARKS: Ras-Raf (BRAF RBD) disruption / FRET / MOA assay, KRAS G13C
- Type: biochemical
- COND: KRAS G13C; Ras-Raf disruption/FRET/MOA assay; read-out: IC50* KRAS G13C FRET data
pIC50: −log10 of the molar value.
Hi there, I'd appreciate the recorded pIC50 for every entry that follows.

INPUT: Look up pIC50 for this compound: CCn1c(-c2cccnc2[C@H](C)OC)c2c3cc(ccc31)-c1nc(cs1)C[C@H](NC(=O)[C@H](C1CCCC1)N(C)C(=O)[C@H]1CCN(C(=O)C#CC(C)(C)N3CCC3)C1)C(=O)N1CCC[C@H](N1)C(=O)OCC(C)(C)C2 (atropisomer, axis not shown) [Example A439]
OUTPUT: 6.00 to 7.00

INPUT: Repeat for the following compound: CCn1c(-c2cccnc2[C@H](C)OC)c2c3cc(ccc31)-c1cccc(c1)C[C@H](NC(=O)[C@H](C(C)C)N(C)C(=O)C1(F)CCN(C(=O)C#CC(C)(C)N(C)C)CC1)C(=O)N1CCC[C@H](N1)C(=O)OCC(C)(C)C2 (atropisomer, axis not shown) [Example A699]
OUTPUT: 7.00 to 8.00

INPUT: Repeat for the following compound: CCn1c(-c2cccnc2[C@H](C)OC)c2c3cc(ccc31)-c1csc(n1)C[C@H](NC(=O)[C@H](C(C)C)N(C)C(=O)N1CCN(C(=O)/C=C/CN(C)C)C[C@@H]1C)C(=O)N1CCC[C@H](N1)C(=O)OCC(C)(C)C2 (atropisomer, axis not shown) [Example A709]
OUTPUT: 6.00 to 7.00

INPUT: Repeat for the following compound: CCn1c(-c2cccnc2[C@H](C)OC)c2c3cc(ccc31)-c1cccc(c1)C[C@H](NC(=O)[C@H](C(C)C)N(C)C(=O)[C@H]1CCN(C(=O)/C=C/CN3CC(OC)C3)C1)C(=O)N1CCC[C@H](N1)C(=O)OCC(C)(C)C2 (atropisomer, axis not shown) [Example A203]
OUTPUT: < 5.00
